B1: library; a variant is named by its letters at N, in order (parent)
chain: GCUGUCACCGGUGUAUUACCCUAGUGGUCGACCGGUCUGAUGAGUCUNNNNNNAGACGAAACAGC

Variants of: B1
testDescription: normalized RNA/DNA level without ligand (relative to sTRSVctl = 100) (log10 (% of sTRSVctl)); ligand: hypoxanthine (xanthine aptamer); higher = less ribozyme self-cleavage, higher mRNA level
experimentalConditions: HEK293T, reporter: mCherry (pCS4076), ligand present: no
The entries below come with measured normalized RNA/DNA level without ligand (log10) values attached.
The reply should be a number, written without any unit.

Observe how each entry below is paired with its result.
UAACGC = 1.74
AUCGUA = 1.74
CGGAUC = 1.92
CGAAUU = 1.81

Data request: Look up normalized RNA/DNA level without ligand (log10): GGGACU
Data returned: 1.91

Data request: Which value of normalized RNA/DNA level without ligand (log10) has been reported for GGCGCC in the records?
Data returned: 1.93

Data request: What measured normalized RNA/DNA level without ligand (log10) goes with GCGGAU ?
Data returned: 1.48

Data request: Need normalized RNA/DNA level without ligand (log10) of CCCUGA , thanks.
Data returned: 1.88

Data request: For the variant shown here, GGUGCC , give the reported normalized RNA/DNA level without ligand (log10).
Data returned: 1.97

Data request: Using the record for ACCUUC , report its normalized RNA/DNA level without ligand (log10).
Data returned: 1.96

Data request: What normalized RNA/DNA level without ligand (log10) value was documented for this variant, GUGAAG ?
Data returned: 1.15
